# measured.on: human CB2 receptor (Homo sapiens (Human))
# Sequence (P34972 whole entry): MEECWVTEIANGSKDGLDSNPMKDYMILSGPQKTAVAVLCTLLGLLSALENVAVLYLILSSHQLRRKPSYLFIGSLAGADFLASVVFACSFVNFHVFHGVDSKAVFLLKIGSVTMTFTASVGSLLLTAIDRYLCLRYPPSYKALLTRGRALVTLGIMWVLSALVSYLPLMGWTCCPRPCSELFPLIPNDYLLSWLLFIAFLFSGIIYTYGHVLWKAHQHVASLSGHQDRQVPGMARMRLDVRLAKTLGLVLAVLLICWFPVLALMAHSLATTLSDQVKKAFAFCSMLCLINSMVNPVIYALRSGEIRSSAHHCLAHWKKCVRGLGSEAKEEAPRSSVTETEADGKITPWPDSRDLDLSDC
# assay.notes: [35S]GTPγS-binding assay, functional activity at the human CB2 receptor
# Assay type: biochemical
# condition.context: Cell line C2-4; Emax of compound divided by Emax of CP55940; read-out: % Activity (relative to CP55,940)
// values below are reported Emax

compound | Emax [%]
O=S(=O)(NCC1CCOCC1)c1ccc(NC2CC3CCC2C3)cc1C(F)(F)F (centres unmarked) [Compound 41] | 36
O=S(=O)(NCC1CCCO1)c1ccc(NC2CC3CCC2C3)cc1C(F)(F)F (centres unmarked) [Compound 26] | 35
CC(C)(NS(=O)(=O)c1ccc(NC2CCCCC2)cc1C(F)(F)F)C1CC1 [Compound 108] | 49.3
O=S(=O)(NCC1CC1)c1ccc(NC2CCCCCCC2)cc1C(F)(F)F [Compound 88] | 9.8
COc1cc(Nc2ccc(S(=O)(=O)NCC3CC3)c(C(F)(F)F)c2)cc(OC)c1 [Compound 4] | 51

meta.source: patent US9422235B2
